- test.summary: Pharmacokinetics of apixaban after oral and intravenous administration; plasma concentrations by UPLC-MS, two-compartment model
- Assay type: in vivo
- particulars: plasma, iv, […], horses, single IV dose […]; read-out: VSS (volume of distribution at steady-state), mean
experimental.readout: Vd

>  <chemical.smiles>
COc1ccc(-n2nc(C(N)=O)c3c2C(=O)N(c2ccc(N4CCCCC4=O)cc2)CC3)cc1

>  <experimental.readout>
Vd

>  <assay.result>
0.0933 L/kg

$$$$

###

- test.summary: Pharmacokinetics of apixaban after oral and intravenous administration; plasma concentrations by UPLC-MS, two-compartment model
- Assay type: in vivo
- particulars: horse, plasma; horses, IV administration; read-out: time of peak plasma concentration (converted)

>  <chemical.smiles>
COc1ccc(-n2nc(C(N)=O)c3c2C(=O)N(c2ccc(N4CCCCC4=O)cc2)CC3)cc1

>  <display.unit>
min

>  <Tmax>
3

$$$$
